system: NCI-H2009; experiment: relative viability (nuclei count vs DMSO), 5 days (fraction); higher = more cells survive; settings: first compound 0.08 µM
The threshold is 0.9. Values of relative viability beneath it are tagged Met; values meeting or exceeding it are tagged Not met.

compound	targetOfAssay	categoryLabel
Cc1cnc(-c2cnc(NCCNc3ccc(C#N)cn3)nc2-c2ccc(Cl)cc2Cl)[nH]1 + Cc1nc(NC(=O)N2CCC[C@H]2C(N)=O)sc1-c1ccnc(C(C)(C)C(F)(F)F)c1 [Alpelisib] (partner 2 µM)	NCI-H2009	Not met
O=c1[nH]c2ccccc2n1C1CCN(CCCC(c2ccc(F)cc2)c2ccc(F)cc2)CC1 [Pimozide] + C[C@@H](Oc1cc(-c2cnn(C3CCNCC3)c2)cnc1N)c1c(Cl)ccc(F)c1Cl [Crizotinib] (partner 1 µM)	NCI-H2009	Not met
O=c1[nH]c2ccccc2n1C1CCN(CCCC(c2ccc(F)cc2)c2ccc(F)cc2)CC1 [Pimozide] + Nc1ncn([C@H]2C[C@H](O)[C@@H](CO)O2)c(=O)n1 [Decitabine] (partner 2 µM)	NCI-H2009	Met
Cc1cnc(-c2cnc(NCCNc3ccc(C#N)cn3)nc2-c2ccc(Cl)cc2Cl)[nH]1 + CC1(C)CCC(c2ccc(Cl)cc2)=C(CN2CCN(c3ccc(C(=O)NS(=O)(=O)c4ccc(N[C@H](CCN5CCOCC5)CSc5ccccc5)c(S(=O)(=O)C(F)(F)F)c4)cc3)CC2)C1 [Navitoclax] (partner 0.5 µM)	NCI-H2009	Not met
O=c1[nH]c2ccccc2n1C1CCN(CCCC(c2ccc(F)cc2)c2ccc(F)cc2)CC1 [Pimozide] + CS(=O)(=O)N1CCN(Cc2cc3nc(-c4cccc5[nH]ncc45)nc(N4CCOCC4)c3s2)CC1 [Pictilisib] (partner 1 µM)	NCI-H2009	Met
